Each entry below carries its measured IC50, system: CK1ϵ (Homo sapiens, UniProt P49674).
Sequence (P49674 whole entry): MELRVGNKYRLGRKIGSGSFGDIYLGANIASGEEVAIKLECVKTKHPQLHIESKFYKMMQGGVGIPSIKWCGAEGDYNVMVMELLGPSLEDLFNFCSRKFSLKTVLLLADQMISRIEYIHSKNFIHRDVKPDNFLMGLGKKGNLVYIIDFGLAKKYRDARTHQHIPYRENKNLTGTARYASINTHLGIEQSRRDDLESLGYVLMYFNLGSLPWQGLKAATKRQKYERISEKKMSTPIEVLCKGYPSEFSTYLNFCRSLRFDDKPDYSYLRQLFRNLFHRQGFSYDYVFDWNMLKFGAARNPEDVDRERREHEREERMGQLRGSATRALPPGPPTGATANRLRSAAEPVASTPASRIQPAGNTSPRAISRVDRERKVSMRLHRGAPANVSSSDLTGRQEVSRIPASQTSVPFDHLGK
attribute.measured: IC50 (nM)

The examples below pair each entry with its known result.
Nc1cc(C(=O)Nc2cn3nc(-c4c(-c5ccc(F)cc5)nn5c4COCC5)ccc3n2)ccn1    2.7
CC(C)OC(=O)N1CCn2nc(-c3ccc(F)cc3)c(-c3ccc4nc(NC(=O)c5ccnc(F)c5)cn4n3)c2C1    6.5
O=C(Nc1cn2nc(-c3c(-c4ccc(F)cc4)nn4c3COCC4)ccc2n1)c1cc(F)nc(F)c1    4
O=C(Nc1cn2nc(-c3c(-c4ccc(F)cc4)nn4c3CN(C(=O)c3ccncc3)CC4)ccc2n1)c1ccnc(F)c1    4.5
O=C(Nc1cn2nc(-c3c(-c4ccc(F)cc4)nn4c3CCCC4)ccc2n1)c1ccnc(F)c1    1.3
O=C(Nc1cn2nc(-c3c(-c4ccc(F)cc4)nn4c3CN(C(=O)c3ccccc3F)CC4)ccc2n1)c1ccnc(F)c1    0.4

(a) O=C(Nc1cn2nc(-c3c(-c4ccc(F)cc4)nn4c3CNCC4)ccc2n1)c1ccnc(C(F)(F)F)c1
(b) O=C(Nc1cn2nc(-c3c(-c4ccc(F)cc4)nn4c3CN(C(=O)Nc3ccc(C(F)(F)F)cc3)CC4)ccc2n1)c1ccnc(F)c1
(c) O=C(Nc1cn2nc(-c3c(-c4ccc(F)cc4)nn4c3CNCC4)ccc2n1)c1ccnc(N2CCOCC2)c1
(d) O=C(Nc1cn2nc(-c3c(-c4ccc(F)cc4)nn4c3CN(C(=O)NCC(F)(F)F)CC4)ccc2n1)c1ccnc(F)c1
(e) O=C(Nc1cn2nc(-c3c(-c4ccc(F)cc4)nn4c3CN(C(=O)c3cccc(F)c3)CC4)ccc2n1)c1ccnc(F)c1
With regard to IC50, arrange the entries in ascending order, please. Order the labels as requested and list them.
c, e, d, a, b
(c: 1.3 nM, e: 2.7 nM, d: 5.6 nM, a: 12.6 nM, b: 146 nM)

###

pIC50: −log10 of the molar value.
# pIC50 per entry for CK1δ (Homo sapiens)
attribute.measured: pIC50

Examples with answers:
O=C(Nc1cn2nc(-c3c(-c4ccc(F)cc4)nn4c3CN(C(=O)c3ccncc3)CC4)ccc2n1)c1ccnc(F)c1    9.30
O=C(Nc1cn2nc(-c3c(-c4ccc(F)cc4)nn4c3CNCC4)ccc2n1)c1cc(F)nc(F)c1    9.40
O=C(Nc1cn2nc(-c3c(-c4ccc(F)cc4)nn4c3CN(C(=O)NC3CCCC3)CC4)ccc2n1)c1ccnc(F)c1    8.70
O=C(Nc1cn2nc(-c3c(-c4ccc(F)cc4)nn4c3CN(C(=O)NC3(C(F)(F)F)CC3)CC4)ccc2n1)c1ccnc(F)c1    8.82
O=C(Nc1cn2nc(-c3c(-c4ccc(F)cc4)nn4c3CN(S(=O)(=O)c3ccc(F)cc3)CC4)ccc2n1)c1ccnc(F)c1    8.96
O=C(Nc1cn2nc(-c3c(-c4ccc(F)cc4)noc3C3CCOCC3)ccc2n1)c1ccnc(N2CCOCC2)c1    8.42
O=C(Nc1cn2nc(-c3c(-c4ccc(F)cc4)nn4c3CN(C(=O)Nc3ccncc3)CC4)ccc2n1)c1ccnc(F)c1    9.15
O=C(Nc1cn2nc(-c3c(-c4ccc(F)cc4)nn4c3CN(C(=O)NC3CC3)CC4)ccc2n1)c1ccnc(F)c1    9.40

(A) O=C(Nc1cn2nc(-c3c(-c4ccc(F)cc4)nn4c3CN(CC(F)F)CC4)ccc2n1)c1ccnc(F)c1
(B) CC(C)NC(=O)N1CCn2nc(-c3ccc(F)cc3)c(-c3ccc4nc(NC(=O)c5ccnc(F)c5)cn4n3)c2C1
// task: argmin of pIC50 over [ A , B ] Indicate your choice by writing its label.
B

(a) O=C(Nc1cn2nc(-c3c(-c4ccc(F)cc4)nn4c3CN(C(=O)c3ccc(F)cc3)CC4)ccc2n1)c1ccnc(F)c1
(b) CS(=O)(=O)N1CCn2nc(-c3ccc(F)cc3)c(-c3ccc4nc(NC(=O)c5ccnc(F)c5)cn4n3)c2C1
(c) O=C(Nc1cn2nc(-c3c(-c4ccc(F)cc4)nn4c3CN(S(=O)(=O)Cc3ccccc3)CC4)ccc2n1)c1ccnc(F)c1
(d) O=C(Nc1cn2nc(-c3c(-c4ccc(F)cc4)nn4c3CN(C(=O)NC3CCCCC3)CC4)ccc2n1)c1ccnc(F)c1
(e) O=C(Nc1cn2nc(-c3c(-c4ccc(F)cc4)nn4c3CN(C(=O)Nc3ccc(C(F)(F)F)cc3)CC4)ccc2n1)c1ccnc(F)c1
Sort by pIC50, descending. # the answer lists labels in the order requested
b, a, d, c, e
(b: 9.70, a: 9.30, d: 8.80, c: 8.55, e: 7.92)

(A) O=C(Nc1cn2nc(-c3c(-c4ccc(F)cc4)nn4c3CCC4)ccc2n1)c1ccncc1
(B) O=C(Nc1cn2nc(-c3c(-c4ccc(F)cc4)nn4c3CN(C(=O)CC(F)(F)F)CC4)ccc2n1)c1ccnc(F)c1
API: POST /compare with A and B ; response names the item with higher pIC50. Indicate your choice by writing its label.
B

###

pIC50: −log10 of the molar value.
pIC50, CK1δ (Homo sapiens, UniProt P48730): measured values
attribute.measured: pIC50

Illustrative cases are given below, each with its answer.
Cc1nc(-c2ccncc2)sc1C(=O)Nc1cn2nc(-c3c(-c4ccc(F)cc4)nn4c3CNCC4)ccc2n1 [Example 2]    9.70
O=C(Nc1cn2nc(-c3c(-c4ccc(F)cc4)nn4c3CN(CCCF)CC4)ccc2n1)c1ccnc(F)c1 [Example 28]    9.70

(P) O=C(Nc1cn2nc(-c3c(-c4ccc(F)cc4)nn4c3CNCC4)ccc2n1)c1ccncc1 [Example 3]
(Q) O=C(Nc1cn2nc(-c3c(-c4ccc(F)cc4)nn4c3CNCC4)ccc2n1)c1ccnc(C(F)(F)F)c1 [Example 10]
Returns: the argument ( P or Q ) having the larger pIC50. Reply with the label of the item you choose.
P
(P: 9.30, Q: 8.68)

(1) COC(=O)N1CCn2nc(-c3ccc(F)cc3)c(-c3ccc4nc(NC(=O)c5ccnc(F)c5)cn4n3)c2C1 [Example 33]
(2) CC(C)OC(=O)N1CCn2nc(-c3ccc(F)cc3)c(-c3ccc4nc(NC(=O)c5ccnc(F)c5)cn4n3)c2C1 [Example 34]
Lower pIC50: 1 or 2 ? // output: label of the selected item
2

###

# assay.target: CK1ϵ (Homo sapiens, UniProt P49674)
attribute.measured: IC50 (nM)

// solved cases for IC50 follow
CC(C)C(=O)N1CCn2nc(-c3ccc(F)cc3)c(-c3ccc4nc(NC(=O)c5ccnc(F)c5)cn4n3)c2C1    3.1
O=C(Nc1cn2nc(-c3c(-c4ccc(F)cc4)nn4c3CN(C(=O)NC3CCCC3)CC4)ccc2n1)c1ccnc(F)c1    13.9
O=C(Nc1cn2nc(-c3c(-c4ccc(F)cc4)nn4c3CN(C(=O)c3ccc(F)cc3)CC4)ccc2n1)c1ccnc(F)c1    3.1
O=C(Nc1cn2nc(-c3c(-c4ccc(F)cc4)nn4c3CNCC4)ccc2n1)c1ccnc(-c2cccnc2)c1    2.3
O=C(Nc1cn2nc(-c3c(-c4ccc(F)cc4)nn4c3CCCC4)ccc2n1)c1cc(F)nc(F)c1    3.9

(a) O=C(Nc1cn2nc(-c3c(-c4ccc(F)cc4)nn4c3CN(C(=O)NC3CCCCC3)CC4)ccc2n1)c1ccnc(F)c1
(b) O=C(Nc1cn2nc(-c3c(-c4ccc(F)cc4)nn4c3CN(CC(F)F)CC4)ccc2n1)c1ccnc(F)c1
(c) O=C(Nc1cn2nc(-c3c(-c4ccc(F)cc4)nn4c3CN(S(=O)(=O)c3cccc(F)c3)CC4)ccc2n1)c1ccnc(F)c1
Please list the entries, largest IC50 first. List labels; respect the requested ordering.
a, c, b

(a) O=C(Nc1cn2nc(-c3c(-c4ccc(F)cc4)nn4c3CN(CCCF)CC4)ccc2n1)c1ccnc(F)c1
(b) O=C(Nc1cn2nc(-c3c(-c4ccc(F)cc4)nn4c3CN(C(=O)CC(F)(F)F)CC4)ccc2n1)c1ccnc(F)c1
(c) O=C(Nc1cn2nc(-c3c(-c4ccc(F)cc4)nn4c3CN(S(=O)(=O)c3ccc(F)cc3)CC4)ccc2n1)c1ccnc(F)c1
Order the 3 compounds from highest to lowest IC50. Please list the labels in the order you were asked to rank them.
c, a, b
(c: 14 nM, a: 2.5 nM, b: 0.7 nM)

###

pIC50: −log10 of the molar value.
# collection of pIC50 values tested on CK1ϵ (Homo sapiens, UniProt P49674)
attribute.measured: pIC50

O=C(Nc1cn2nc(-c3c(-c4ccc(F)cc4)nn4c3CN(C(=O)c3cccnc3)CC4)ccc2n1)c1ccnc(F)c1    8.52

(P) O=C(Nc1cn2nc(-c3c(-c4ccc(F)cc4)nn4c3CN(S(=O)(=O)C3CC3)CC4)ccc2n1)c1ccnc(F)c1
(Q) O=C(Nc1cn2nc(-c3c(-c4ccc(F)cc4)nn4c3CN(CCC(F)(F)F)CC4)ccc2n1)c1ccnc(F)c1
pIC50 comparison. Which is larger, P or Q ? Lab log: write the label of the selected item as the result.
P
(P: 8.92, Q: 8.44)
